Test system: SUDHL10
TEST DESCRIPTION: Induction of cytotoxicity (CellTiter-Glo, 5 h), SUDHL10
REPORTED CONDITIONS: read-out: Cytotox SUDHL10 [M] (median); SUDHL10 cells, cytotoxicity induction, CellTiter-Glo, 5 h incubation, median
MEASUREMENT LABEL: IC50

compound="CCc1c2c(nn1C)CN(C)CCCn1c(C(=O)O)c(CCCOc3cccc4ccccc34)c3ccc(C)c-2c31 (single isomer, unassigned; enantiomer 1) [Example 145]" val="2.4e-06 M"
compound="CCn1nc(C2CC2)c2c1COCCCCn1c(C(=O)O)c(CCCOc3cccc4ccccc34)c3cccc-2c31 (single isomer, unassigned; enantiomer 2) [Example 090]" val="> 3.3e-05 M"
compound="CN1CCCn2c(C(=O)O)c(CCCOc3cccc4ccccc34)c3cccc(c32)-c2c(COc3ccc(N4CCN(S(C)(=O)=O)CC4)cc3)nn(C)c2C1 (single isomer, unassigned; enantiomer 1) [Example 1-46]" val="2.29e-06 M"

---

The reader will find reported EC50 values listed item by item below.
Tested on: SUDHL10
TEST DESCRIPTION: Induction of caspase-3/7 activity (Caspase-Glo 3/7), SUDHL10
Type: cell-based
REPORTED CONDITIONS: Homo sapiens, SU-DHL10, 3 h, caspase-3/7 induction, SUDHL10 cells, 3 h treatment; median
MEASUREMENT LABEL: EC50

molecule="CC(C)OCc1nn(C)c2c1-c1cccc3c(CCCOc4cccc5ccccc45)c(C(=O)O)n(c13)CCCN(C)C2 (single isomer, unassigned) [Example 1-71]" val="> 33 µM"
molecule="COc1cc2cc(c1)-c1cccc3c(CCCOc4cccc5ccccc45)c(C(=O)O)n(c13)CCCCCO2 (racemic) [Example 1-122]" val="> 33 µM"
molecule="COc1cc2cc(c1)-c1cccc3c(CCCOc4cccc5ccccc45)c(C(=O)O)n(c13)CCOCCO2 (racemic) [Example 1-119]" val="> 33 µM"
molecule="CN1CCCn2c(C(=O)O)c(CCCOc3cccc4ccccc34)c3cccc(c32)-c2c(CN3CCOCC3=O)nn(C)c2C1 (racemic) [Example 157]" val="> 33 µM"
molecule="COC1(c2ccc(OCc3nn(C)c4c3-c3cccc5c(CCCOc6cccc7ccccc67)c(C(=O)O)n(c35)CC=CCOC4)cc2)CCOCC1 (racemic) [Example 1-64]" val="29.4 µM"
molecule="Cn1nc(CCN2CCOCC2)c2c1COCCCCn1c(C(=O)O)c(CCCOc3cccc4ccccc34)c3cccc-2c31 (racemic) [Example 150]" val="28 µM"
molecule="Cc1c2c(nn1C)COCCCCn1c(C(=O)O)c(CCOc3ccc4ccccc4c3)c3cccc-2c31 (racemic) [Example 357]" val="> 33 µM"
molecule="CN1CCCn2c(C(=O)O)c(CCCOc3cccc4ccccc34)c3cccc(c32)-c2c(nn(C)c2C(F)(F)F)C1 (racemic) [Example 324]" val="32.1 µM"
molecule="Cn1nc(COc2ccccc2)c2c1COCC=CCn1c(C(=O)O)c(CCCOc3cccc4ccccc34)c3cccc-2c31 (racemic) [Example 1-76]" val="> 33 µM"
molecule="Cc1nn(CC(F)(F)F)c2c1-c1cccc3c(CCCOc4cccc5ccccc45)c(C(=O)O)n(c13)CCCCOC2 (racemic) [Example 109]" val="> 33 µM"
molecule="CCc1nn(CCN2CCOCC2)c2c1-c1cccc3c(CCCOc4cccc5ccccc45)c(C(=O)O)n(c13)CCCCOC2 (racemic) [Example 198]" val="6.94 µM"
molecule="Cc1cc(OCCCc2c(C(=O)O)n3c4c(cccc24)-c2c(C)nn(C)c2COCCC3)cc(C)c1Cl (single isomer, unassigned; enantiomer 1) [Example 014]" val="> 33 µM"
molecule="Cn1ncc2c1COCCCCn1c(C(=O)O)c(CCCOc3cccc4ccccc34)c3cccc-2c31 (racemic) [Example 128]" val="> 33 µM"

// provenance: patent US10981932B2
